Test system: HeLa cells
test_description: Cytotoxicity, CellTox Green Cytotoxicity Assay, HeLa
Type: cell-based
experimental_conditions: exposure time 18 h
observation_type: TC50 cytotoxicity

Here's what some known entries look like.
> print(dat)
                               query.smiles  test.target  endpoint.value
1    CN(CC(=O)NCc1ccc(O)c(O)c1)Cc1ccc(Br)s1   HeLa cells        > 100 µM
2    CN(CC(=O)NCc1ccc2c(c1)OCO2)Cc1ccccc1Br   HeLa cells        > 100 µM
3  CN(CC(=O)NCc1ccc2c(c1)OCO2)Cc1ccc(Br)cc1   HeLa cells        > 100 µM
4   CN(CC(=O)NCc1ccc2c(c1)OCO2)Cc1ccc(Br)s1   HeLa cells        > 100 µM

Now for another entry.
(Q) Return TC50 cytotoxicity for the following compound: `CN(CC(=O)NCc1ccccc1)Cc1ccc(Br)s1`
(A) > 100 µM

###

Tested on: HeLa cells
test_description: Cytotoxicity, CellTox Green Cytotoxicity Assay, HeLa
Format: cell-based
experimental_conditions: exposure time 18 h
Parameter TC50 cytotoxicity: see the listing below.

> print(dat)
                               query.smiles  endpoint.value
1   CN(CC(=O)NCc1ccc2c(c1)OCO2)Cc1ccc(Br)o1        > 100 µM
2  CN(CC(=O)NCc1cc(Cl)cc(Cl)c1)Cc1ccc(Br)s1        > 100 µM

Pending compound:
(Q) Look up and state reported TC50 cytotoxicity for `Cc1ccc(CN(C)CC(=O)NCc2ccc3c(c2)OCO3)s1`
(A) > 100 µM
